system: HepG2; test: cytotoxicity call (relative viability < 0.9); details: 10 µM
The campaign covered roughly 39,000 compounds. About 3,300 (8.5%) were called active. The entries come from a sample that favours actives as a whole.
measured_quantity: cytotoxicity call

In [3]: df
Out[3]:
                                   molecule  measured_quantity    result
0  C[C@@H]1CCCCO[C@@H](CN(C)CC2CC2)[C@H](C)CN([C@H](C)CO)C(=O)c2cc(NC(=O)Nc3ccc(C(F)(F)F)cc3)ccc2O1  cytotoxicity call  inactive
1  CCOC(=O)CC(=O)N1CCSC1COc1ccccc1OC (centres undefined)  cytotoxicity call    active
2  C[C@H](CO)N1C[C@H](C)[C@H](CN(C)CC2CC2)OCCCC[C@H](C)Oc2ccc(NC(=O)Nc3ccc(C(F)(F)F)cc3)cc2C1=O  cytotoxicity call    active
3  CN1CCc2cccc3c2C1Cc1ccc(O)c(O)c1-3.Cl (centres undefined)  cytotoxicity call    active
4  COc1cc2c3cc1Oc1cc(ccc1O)O[C@H]1c4c(cc(OC)c(O)c4Oc4ccc(cc4)C[C@@H]3N(C)CC2)CCN1C  cytotoxicity call  inactive

# query: cytotoxicity call of entry `Cc1cc(-c2cc[nH]n2)c(C)s1`
inactive

Then this molecule: `O=C(C[C@@H]1CC=CC[C@H](NC(=O)OCC2c3ccccc3-c3ccccc32)C(=O)O[C@@H](c2ccccc2)CNC1=O)N[C@@H](CO)Cc1ccccc1`
inactive

Then this molecule: `COc1ccc2c3c(n(c2c1)C)[C@@H](CO)N(Cc1cc(cc(c1)OC)OC)C[C@]13CN(C1)C(=O)CN1CCOCC1`
inactive

Then this molecule: `Cc1[nH]c(=O)[nH]c(=O)c1/C=C/C(=O)O`
inactive

* * *

system: HepG2; assay: cytotoxicity call (relative viability < 0.9); conditions: 10 µM
The whole screen tested about 39,000 compounds, of which about 3,300 (8.5%) were called active. What follows is part of a selection rich in actives, with near analogues and random picks from the rest.
Field 'call' accepts class 1 for active, class 0 for inactive

I would be grateful if you could indicate the recorded call for `C[C@@H]1CN([C@H](C)CO)C(=O)c2cc(NC(=O)Nc3ccccc3)ccc2O[C@@H](C)CCCCO[C@@H]1CN(C)C(=O)Cc1ccccc1` .
class 0

Then this molecule: `Cn1ncc2c(NN3C(=O)CCC3=O)ncnc21`
class 0

Then this molecule: `CC(C)NC(=O)Nc1ccc2c(c1)C(=O)N([C@H](C)CO)C[C@H](C)[C@H](CN(C)Cc1ccc(C(F)(F)F)cc1)OCCCC[C@H](C)O2`
class 0

Then this molecule: `Cl.O=C1CN2Cc3c(ccc(Cl)c3Cl)N=C2N1`
class 1

Then this molecule: `NCc1nnc2n1CCCCC2`
class 0

Then this molecule: `CC(C)NC(=O)Nc1ccc2c(c1)C(=O)N([C@@H](C)CO)C[C@H](C)[C@H](CN(C)Cc1ccc(C(F)(F)F)cc1)OCCCC[C@H](C)O2`
class 0

Then this molecule: `CC(C)NC(=O)Nc1ccc2c(c1)C(=O)N([C@H](C)CO)C[C@@H](C)[C@@H](CN(C)Cc1ccc(C(F)(F)F)cc1)OCCCC[C@@H](C)O2`
class 0

Then this molecule: `C[C@@H]1CCCCO[C@@H](CN(C)C(=O)CCC(F)(F)F)[C@@H](C)CN([C@H](C)CO)C(=O)c2cc(NC(=O)Nc3ccccc3)ccc2O1`
class 0

* * *

system: HepG2; assay: cytotoxicity call (relative viability < 0.9); details: 10 µM
Hit rate of the full screen: of about 39,000 compounds, about 3,300 (8.5%) were called active. This excerpt belongs to a sample that is enriched for actives.
Field 'call' accepts active, inactive

I would be grateful if you could indicate the recorded call for `Cc1ccc(S(=O)(=O)Nc2ccc3c(c2)C(=O)N([C@@H](C)CO)C[C@H](C)[C@@H](CN(C)Cc2ccc(C(F)(F)F)cc2)OCCCC[C@H](C)O3)cc1` .
active

Then this compound: `C[C@@H]1CN([C@@H](C)CO)C(=O)c2cccc(NC(=O)Nc3ccc(C(F)(F)F)cc3)c2O[C@@H]1CN(C)C(=O)Nc1cccc2ccccc12`
active

Then this compound: `Cc1ccc(S(=O)(=O)Nc2ccc3c(c2)C(=O)N([C@@H](C)CO)C[C@H](C)[C@@H](CN(C)Cc2ccc(C(F)(F)F)cc2)OCCCC[C@@H](C)O3)cc1`
active

Then this compound: `C[C@@H]1CN([C@H](C)CO)C(=O)c2cc(NS(=O)(=O)c3ccc(F)cc3)ccc2O[C@H]1CN(C)Cc1ccc(Oc2ccccc2)cc1`
inactive

Then this compound: `COc1cccc(NC(=O)N2C[C@@H](O)COC[C@H]3O[C@@H](CC(=O)NCc4ccccc4F)CC[C@@H]32)c1`
inactive

Then this compound: `C[C@@H]1CCCCO[C@H](CN(C)Cc2ccc(C(=O)Nc3ccccc3N)cc2)[C@@H](C)CN([C@H](C)CO)C(=O)c2cc(N(C)C)ccc2O1`
inactive

Then this compound: `Cc1ccc(S(=O)(=O)Nc2ccc3c(c2)C(=O)N([C@H](C)CO)C[C@H](C)[C@@H](CN(C)Cc2ccc(C(F)(F)F)cc2)OCCCC[C@H](C)O3)cc1`
active

Then this compound: `C[C@@H]1CN([C@@H](C)CO)C(=O)c2cc(NS(=O)(=O)c3ccc(F)cc3)ccc2O[C@H]1CN(C)Cc1ccc(Oc2ccccc2)cc1`
inactive

Then this compound: `Cc1ccc(S(=O)(=O)Nc2ccc3c(c2)C(=O)N([C@@H](C)CO)C[C@@H](C)[C@@H](CN(C)Cc2ccc(C(F)(F)F)cc2)OCCCC[C@H](C)O3)cc1`
inactive

Then this compound: `C[C@H](CO)N1C[C@H](C)[C@H](CN(C)C(=O)Nc2cccc3ccccc23)Oc2c(NC(=O)Nc3ccc(C(F)(F)F)cc3)cccc2C1=O`
active

Then this compound: `Cc1ccc(S(=O)(=O)Nc2ccc3c(c2)C(=O)N([C@@H](C)CO)C[C@H](C)[C@H](CN(C)Cc2ccc(C(F)(F)F)cc2)OCCCC[C@@H](C)O3)cc1`
inactive

Then this compound: `CN1C(=S)N[C@@H]2CS(=O)(=O)C[C@@H]21`
inactive

Then this compound: `Cc1ccc(S(=O)(=O)Nc2ccc3c(c2)C(=O)N([C@@H](C)CO)C[C@@H](C)[C@H](CN(C)Cc2ccc(C(F)(F)F)cc2)OCCCC[C@@H](C)O3)cc1`
active

* * *

tested on: HepG2; assay: cytotoxicity call (relative viability < 0.9); settings: 10 µM
The campaign covered roughly 39,000 compounds. About 3,300 (8.5%) were called active. The list comes from a sample in which actives are over-represented; it also holds close analogues and randomly drawn compounds.
Field 'call' accepts Yes (active), No (inactive)

I would be grateful if you could indicate the recorded call for `C[C@H]1CN([C@@H](C)CO)C(=O)Cc2cc(NS(=O)(=O)c3cccs3)ccc2O[C@@H]1CN(C)Cc1ccc(Oc2ccccc2)cc1` .
No

Then this compound: `C[C@@H]1CN([C@@H](C)CO)C(=O)c2cc(NC(=O)Nc3cccc4ccccc34)ccc2O[C@@H](C)CCCCO[C@@H]1CN(C)Cc1ccncc1`
No

Then this compound: `C[C@@H]1CCCCO[C@H](CN(C)Cc2ccccc2)[C@@H](C)CN([C@@H](C)CO)C(=O)c2cc(NC(=O)Nc3cccc4ccccc34)ccc2O1`
Yes

Then this compound: `C[C@@H]1CCCCO[C@@H](CN(C)Cc2ccccc2)[C@H](C)CN([C@@H](C)CO)C(=O)c2cc(NC(=O)Nc3cccc4ccccc34)ccc2O1`
No

Then this compound: `C[C@H]1CCCCO[C@H](CN(C)Cc2ccccc2)[C@@H](C)CN([C@@H](C)CO)C(=O)c2cc(NC(=O)Nc3cccc4ccccc34)ccc2O1`
Yes

Then this compound: CNC1C(OC2C(OC3C(O)C(O)C(NC(=N)N)C(O)C3NC(=N)N)OC(C)C2(O)C=O)OC(CO)C(O)C1O.O=S(=O)(O)O (stereo unspecified) [STREPTOMYCIN SULFATE [5mM; 10% aq DMSO + 5mM ethanolamine] ]
No

* * *

test system: HepG2; experiment: cytotoxicity call (relative viability < 0.9); conditions: 10 µM
The whole screen tested about 39,000 compounds, of which about 3,300 (8.5%) were called active. The sample as a whole holds a higher share of actives than the screen did.
Field 'call' accepts active, inactive

I would be grateful if you could indicate the recorded call for `CC(C)NC(=O)N(C)C[C@H]1Oc2ccc(NC(=O)C3CCCCC3)cc2C(=O)N([C@@H](C)CO)C[C@@H]1C` .
inactive

Then this compound: `COc1ccc(C(=O)Nc2ccc3c(c2)C(=O)N(C)[C@H]2CC[C@@H](CC(=O)NCC4CC4)O[C@H]2CO3)cc1`
inactive

Then this compound: `Cc1noc(C)c1S(=O)(=O)N(C)C[C@H]1Oc2c(NC(=O)C3CCCCC3)cccc2C(=O)N([C@H](C)CO)C[C@H]1C`
inactive

Then this compound: `Cc1ccc(S(=O)(=O)Nc2ccc3c(c2)CC(=O)N([C@@H](C)CO)C[C@@H](C)[C@@H](CN(C)S(=O)(=O)c2c(C)noc2C)O3)cc1`
inactive

Then this compound: `COc1ccc(S(=O)(=O)Nc2ccc3c(c2)C(=O)N([C@@H](C)CO)C[C@H](C)[C@H](CN(C)C(=O)Nc2cccc4ccccc24)OCCCC[C@@H](C)O3)cc1`
inactive

Then this compound: `C[C@@H]1CCCCO[C@@H](CN(C)C(=O)Nc2ccc(F)cc2)[C@H](C)CN([C@H](C)CO)C(=O)c2cc(NC(=O)c3ccncc3)ccc2O1`
inactive

Then this compound: `CCCC(=O)Nc1ccc2c(c1)C(=O)N(C)C[C@@H](OC)[C@H](C)CN(Cc1cc(-c3ccccc3)on1)[C@H](C)CO2`
inactive

Then this compound: `Cc1cccc(S(=O)(=O)N2C[C@@H](O)COC[C@@H]3O[C@H](CC(=O)NCc4ccncn4)CC[C@H]32)c1`
inactive

Then this compound: NC(=O)c1ccc[n+](C2OC(COP(=O)([O-])OP(=O)(O)OCC3OC(n4cnc5c(N)ncnc54)C(O)C3O)C(O)C2O)c1 (configuration not stated)
inactive

Then this compound: `CO[C@H]1O[C@H](COC(=O)NCCCCCC(=O)NO)[C@H](OC(=O)Nc2ccccc2)[C@H](OC(=O)Nc2ccccc2)[C@H]1OC(=O)Nc1ccccc1`
inactive

Then this compound: `COc1ccc(C(=O)Nc2ccc3c(c2)C(=O)N(C)[C@H]2CC[C@H](CC(=O)NCC4CC4)O[C@@H]2CO3)cc1`
inactive

Then this compound: `C[C@H](CO)N1C[C@H](C)[C@@H](CN(C)Cc2ccncc2)OCCCC[C@H](C)Oc2ccc(NC(=O)NC3CCCCC3)cc2C1=O`
inactive

Then this compound: `CCOP(=O)(CC(=O)O[C@H]1[C@H](OC(=O)Nc2ccccc2-c2ccccc2)[C@H](OC(=O)Nc2ccccc2-c2ccccc2)[C@@H](OC)O[C@@H]1COC(=O)NCCCCCC(=O)NO)OCC`
active

Then this compound: `COc1ccc(C(=O)Nc2ccc3c(c2)C(=O)N(C)[C@H]2CC[C@H](CC(=O)NCC4CC4)O[C@H]2CO3)cc1`
inactive

Then this compound: `COc1cccc(S(=O)(=O)N(C)C[C@@H]2Oc3cc(C#CCC(C)C)ccc3S(=O)(=O)N([C@@H](C)CO)C[C@@H]2C)c1`
inactive

Then this compound: `C[C@@H]1CN([C@@H](C)CO)C(=O)c2cc(Br)cnc2O[C@H]1CN(C)C(=O)CCN1CCCCC1`
inactive

Then this compound: `COc1ccc(C(=O)Nc2ccc3c(c2)C(=O)N(C)[C@@H]2CC[C@H](CC(=O)NCC4CC4)O[C@H]2CO3)cc1`
active

Then this compound: `COc1ccc(S(=O)(=O)Nc2ccc3c(c2)C(=O)N([C@@H](C)CO)C[C@H](C)[C@H](CN(C)C(=O)Nc2cccc4ccccc24)OCCCC[C@H](C)O3)cc1`
active

Then this compound: `COc1ccc(S(=O)(=O)Nc2ccc3c(c2)C(=O)N([C@H](C)CO)C[C@H](C)[C@@H](CN(C)C(=O)Nc2cccc4ccccc24)OCCCC[C@H](C)O3)cc1`
active

Then this compound: `CCO[C@@H]1OC(C(=O)N2CCN(Cc3ccccc3)CC2)=C[C@H](c2ccc(Br)cc2)[C@H]1CCCOC(=O)NCCCCCC(=O)NO`
inactive

Then this compound: `COc1ccc(NC(=O)O[C@H]2[C@H](OC(=O)Nc3ccccc3-c3ccccc3)[C@@H](OC(=O)Nc3ccccc3-c3ccccc3)[C@@H](OC)O[C@@H]2COC(=O)NCCCCCC(=O)NO)cc1`
inactive

Then this compound: `CN(C)CCCNC(=O)C[C@@H]1CC[C@@H]2[C@H](COc3ccc(NC(=O)c4ccccc4F)cc3C(=O)N2C)O1`
inactive

Then this compound: `COc1ccc(C(=O)Nc2ccc3c(c2)C(=O)N(C)[C@@H]2CC[C@@H](CC(=O)NCC4CC4)O[C@@H]2CO3)cc1`
inactive

Then this compound: `COc1cccc(CNC(=O)C[C@@H]2C=C[C@H](NC(=O)C3CCOCC3)[C@@H](CO)O2)c1`
inactive

Then this compound: `Cc1noc(C)c1NC(=O)Nc1ccc2c(c1)CC(=O)N([C@@H](C)CO)C[C@H](C)[C@@H](CN(C)S(=O)(=O)c1c(C)noc1C)O2`
inactive

Then this compound: `COc1ccc(S(=O)(=O)Nc2ccc3c(c2)C(=O)N([C@H](C)CO)C[C@H](C)[C@H](CN(C)C(=O)Nc2cccc4ccccc24)OCCCC[C@@H](C)O3)cc1`
inactive

Then this compound: `COc1ccc(S(=O)(=O)Nc2ccc3c(c2)C(=O)N([C@H](C)CO)C[C@H](C)[C@@H](CN(C)C(=O)Nc2cccc4ccccc24)OCCCC[C@@H](C)O3)cc1`
inactive
